# assay comment: amyloid nucleation score (Sup35N fusion, yeast selection) (log enrichment); library NNK3; higher = more nucleation; inactive = no reads after selection;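 also: zero at mode of non-aggregating sequences after 7 days selection at 30°C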

>  <substance>
SVYQDCTGGNIPQFGSLAD

>  <amyloid nucleation score>
inactive

$$$$
>  <substance>
RNFGYIDSKLWP

>  <amyloid nucleation score>
inactive

$$$$
>  <substance>
GDRRER

>  <amyloid nucleation score>
0.811

$$$$
>  <substance>
HGILEWMDCVLTLFTRVGMS

>  <amyloid nucleation score>
inactive

$$$$
>  <substance>
ECRYIPLYREFTRRVSMSGL

>  <amyloid nucleation score>
inactive

$$$$
>  <substance>
LSLHEGWSVNCVFCLLLTVW

>  <amyloid nucleation score>
2.42

$$$$
>  <substance>
SQRELYH

>  <amyloid nucleation score>
inactive

$$$$
>  <substance>
IMVAMGW

>  <amyloid nucleation score>
inactive

$$$$
>  <substance>
VRCYRVIMRLTFAETCQGHP

>  <amyloid nucleation score>
inactive

$$$$
>  <substance>
ERRKIGLKLLRLRQNNGIMA

>  <amyloid nucleation score>
inactive

$$$$
>  <substance>
WRFYGYI

>  <amyloid nucleation score>
inactive

$$$$
>  <substance>
GCFIGDVRMSMSCSKFLCIE

>  <amyloid nucleation score>
0.381

$$$$
>  <substance>
MSFMTDLNPTFLFMLIG

>  <amyloid nucleation score>
inactive

$$$$
>  <substance>
GNNRGTVSWVERGAWALTKA

>  <amyloid nucleation score>
inactive

$$$$
>  <substance>
MVCLDWVPSNVMTLGS

>  <amyloid nucleation score>
inactive

$$$$
>  <substance>
NVFLRNLA

>  <amyloid nucleation score>
inactive

$$$$
>  <substance>
TDIAPLAGGITSSDNIVRTK

>  <amyloid nucleation score>
inactive

$$$$
>  <substance>
IHCSSWFELS

>  <amyloid nucleation score>
inactive

$$$$
>  <substance>
SQTLQKDLAPSAKLCKIPGV

>  <amyloid nucleation score>
inactive

$$$$
>  <substance>
KFNGCR

>  <amyloid nucleation score>
inactive

$$$$
>  <substance>
TGTSSKYVGEVLHSLVVWFA

>  <amyloid nucleation score>
-0.575

$$$$
>  <substance>
TQSFWIARYTQLVCPRLCQN

>  <amyloid nucleation score>
inactive

$$$$
>  <substance>
MHLEYGVFIDARATYML

>  <amyloid nucleation score>
1.49

$$$$
>  <substance>
FLVWDFRSERKRKKI

>  <amyloid nucleation score>
inactive

$$$$
>  <substance>
WSTESWTYPGIRMCFWGGEG

>  <amyloid nucleation score>
-0.755

$$$$
>  <substance>
CAISLVRLTVQSEEIRVDRN

>  <amyloid nucleation score>
inactive

$$$$
>  <substance>
LVDVDVHR

>  <amyloid nucleation score>
-0.994

$$$$
>  <substance>
WVFSSNVRKYMRALRRRYSD

>  <amyloid nucleation score>
inactive

$$$$
>  <substance>
CALSHYGKFDYYPSFVSFKQ

>  <amyloid nucleation score>
inactive

$$$$
>  <substance>
RFMSCMGFPHRCHGSSRYVG

>  <amyloid nucleation score>
inactive

$$$$
>  <substance>
YSTMRS

>  <amyloid nucleation score>
inactive

$$$$
>  <substance>
VNNPQVDHRVLFNNM

>  <amyloid nucleation score>
-0.426

$$$$
>  <substance>
LLCMTPNIVNSRLMTYYPCH

>  <amyloid nucleation score>
inactive

$$$$
>  <substance>
NKNSVFSLSYPYYVTCVGTY

>  <amyloid nucleation score>
inactive

$$$$
>  <substance>
NLEGRKRLMILVFKCCELAI

>  <amyloid nucleation score>
inactive

$$$$
>  <substance>
WILYSMMQLSMMFKSMYSVT

>  <amyloid nucleation score>
inactive

$$$$
>  <substance>
SISRLVISF

>  <amyloid nucleation score>
inactive

$$$$
>  <substance>
VRPLVDYMMQNM

>  <amyloid nucleation score>
inactive

$$$$
>  <substance>
LWNVLHDNSHCSLGSTPLGQ

>  <amyloid nucleation score>
inactive

$$$$
>  <substance>
NWFPGTRGRLLQVTLGYLVD

>  <amyloid nucleation score>
inactive

$$$$
>  <substance>
LLWLKL

>  <amyloid nucleation score>
inactive

$$$$
>  <substance>
DSYIVYDKQDPS

>  <amyloid nucleation score>
inactive

$$$$
>  <substance>
VCCCHLCL

>  <amyloid nucleation score>
0.17

$$$$
>  <substance>
FKMPTIRLVLK

>  <amyloid nucleation score>
inactive

$$$$
>  <substance>
PGEHCWRRFLT

>  <amyloid nucleation score>
inactive

$$$$
>  <substance>
ILNISCFYEWYDHTLNSQSV

>  <amyloid nucleation score>
-0.203

$$$$
>  <substance>
IAFGVLVDDSDCCIDTYEEE

>  <amyloid nucleation score>
inactive

$$$$
>  <substance>
VTCCLLFLDCGVGSRMMLGL

>  <amyloid nucleation score>
-0.356

$$$$
>  <substance>
FMYRTDRYHVRGVITWRLSM

>  <amyloid nucleation score>
inactive

$$$$
>  <substance>
LQHFVR

>  <amyloid nucleation score>
inactive

$$$$
>  <substance>
NALILAT

>  <amyloid nucleation score>
inactive

$$$$
>  <substance>
RRYEFLGGTEGSARRLDSKP

>  <amyloid nucleation score>
inactive

$$$$
>  <substance>
TGPFGINLRGR

>  <amyloid nucleation score>
inactive

$$$$
>  <substance>
TVDMSKPGYIWFSSDRSRYW

>  <amyloid nucleation score>
inactive

$$$$
>  <substance>
VWRRKKAGAHYREDVSNYPQ

>  <amyloid nucleation score>
inactive

$$$$
>  <substance>
VEMGVLSGFK

>  <amyloid nucleation score>
-0.288

$$$$
>  <substance>
GFGGFGRVDNSLCIKAPCCV

>  <amyloid nucleation score>
0.127

$$$$
>  <substance>
HFKSESRFTN

>  <amyloid nucleation score>
inactive

$$$$
>  <substance>
MKFFVNLAYIFFRFFSLRLL

>  <amyloid nucleation score>
inactive

$$$$
>  <substance>
LMRLLLNYWSITAIILL

>  <amyloid nucleation score>
inactive

$$$$
